TARGET UNDER TEST: T1, full-length hCD22-ECD (668aa) displayed on yeast cells (human, UniProt P20273 20-687)
T1 construct: extracellular domain; Yeast surface display fusion Aga2-HA-(insert)-MYC; also called Bin 8; CD22-ECD Full lenght; not shown: Aga2-HA display fusion partner of vector pPNL6; MYC tag
T1 sequence (looked up): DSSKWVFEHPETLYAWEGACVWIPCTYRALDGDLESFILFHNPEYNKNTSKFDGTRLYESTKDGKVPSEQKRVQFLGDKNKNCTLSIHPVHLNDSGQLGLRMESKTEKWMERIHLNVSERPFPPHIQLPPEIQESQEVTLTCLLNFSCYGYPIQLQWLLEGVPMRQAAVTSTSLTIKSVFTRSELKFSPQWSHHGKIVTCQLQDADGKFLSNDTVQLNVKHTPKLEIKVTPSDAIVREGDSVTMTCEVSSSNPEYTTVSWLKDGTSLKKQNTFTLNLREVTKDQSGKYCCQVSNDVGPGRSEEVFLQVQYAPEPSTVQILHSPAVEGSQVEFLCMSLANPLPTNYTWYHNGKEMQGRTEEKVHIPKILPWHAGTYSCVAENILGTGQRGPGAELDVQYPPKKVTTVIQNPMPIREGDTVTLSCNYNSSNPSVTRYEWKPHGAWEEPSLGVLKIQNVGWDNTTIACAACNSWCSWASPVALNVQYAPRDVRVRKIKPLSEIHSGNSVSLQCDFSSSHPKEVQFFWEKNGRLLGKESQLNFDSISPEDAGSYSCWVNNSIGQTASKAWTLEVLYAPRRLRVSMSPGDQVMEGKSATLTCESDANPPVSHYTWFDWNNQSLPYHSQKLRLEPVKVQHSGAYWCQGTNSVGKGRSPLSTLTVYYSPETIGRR
ASSAY PROCEDURE: yeast display cell ELISA, biotinylated sdAb 250 nM
Could you mark each record Satisfied if its OD450 falls strictly under 1 OD450, and Not satisfied if it equals or exceeds it?

Some solved cases for reference:
* hCD221ug-36 (VHH, single biotin at the VHH C-terminal (biotinylation signal sequence), llama VHH, expressed in E. coli TG1, IMAC purified, monomeric SEC fraction; also called VHH # 22; 4-hCD22 1ug-36) VHH: EVQLVDSGGGLVQAGGSLRVSCEASGITFSRAAMGWYRQRPGKERERVAVVNSDSSTIYADSVKGRFTISRDNAKNTVYLQMNSLEPEDTAVYYCWSPGFGSYWGQGTQVTVSS | Not satisfied
* hCD221ug-10 (VHH, single biotin at the VHH C-terminal (biotinylation signal sequence), llama VHH, expressed in E. coli TG1, IMAC purified, monomeric SEC fraction; also called VHH # 23; 5-hCD22 1ug-10) VHH: QVQLVESGGGLVQAGGSLSVSCTASESTFSIMMGWFRQAPGKQREMVAVINSAGSTNYADSAEGRFTISRDLAKKTVSLQMNSLKPEDTAVYYCYVDGYFGQGTQVTVSS | Satisfied
* hCD22pas-24 (VHH, single biotin at the VHH C-terminal (biotinylation signal sequence), llama VHH, expressed in E. coli TG1, IMAC purified, monomeric SEC fraction; also called VHH # 26; 8-hCD22 pas-24) VHH: QVQLVESGGGLVQAGGSLRLSCSASGITSSINSMGWHRQAPGKQRELVASIGRGGSGSTKYADSGKGRFLISRDNNKNILFLEMNSLKPEDTADYYCLEVTTDLSSYWGRGTQVTVSS | Not satisfied

In the following, a different binder is considered.
[in] In plain terms, does hCD221ug-61 (VHH, single biotin at the VHH C-terminal (biotinylation signal sequence), llama VHH, expressed in E. coli TG1, IMAC purified, monomeric SEC fraction; also called VHH # 14; 3-hCD22 1ug-61) VHH: QVQLVESGGGLVQAGGSLRLSCAASMSSFSQYVMYWYRQAPGKQRELVATITSYSNTNYADSVKGRFTISRDNAKSIAYLQMDSLKPEDTAVYYCNAQYGSTFIRNHWDDWGQGTQVTVSS come in under 1 OD450 for OD450?
[out] Not satisfied
